Each recorded value in this set is attributed to ChEMBL document CHEMBL3124903.

procedure.details: Antioxidant activity assessed as NO radical scavenging activity after 150 mins by griess reagent method
Assay type: functional
Lab note - cut at 20 µg/mL for IC50: met if strictly below, not met if not.

[
  {
    "molecule": "Cc1c(-c2nn3c(-c4ccc([N+](=O)[O-])cc4)nnc3s2)[se]c2ncnc(Nc3ccc(Cl)cc3)c12",
    "group.label": "not met"
  },
  {
    "molecule": "Cc1c(-c2nn3c(-c4ccc([N+](=O)[O-])cc4)nnc3s2)[se]c2ncnc(Nc3ccc(F)c(Cl)c3)c12",
    "group.label": "not met"
  },
  {
    "molecule": "Cc1cc(C(C)(C)C)c(O)c(C(C)(C)C)c1 [BUTYLATED HYDROXYTOLUENE]",
    "group.label": "met"
  }
]

# check: IC50 < 20 µg/mL for `Cc1c(-c2nn3c(-c4ccc(O)cc4)nnc3s2)[se]c2ncnc(Nc3ccc(Cl)cc3)c12`
met

# check: IC50 < 20 µg/mL for `Cc1ccc(-c2nnc3sc(-c4[se]c5ncnc(Nc6ccc(Cl)cc6)c5c4C)nn23)cc1`
not met

# check: IC50 < 20 µg/mL for `Cc1c(-c2nn3c(-c4ccc(O)cc4)nnc3s2)[se]c2ncnc(Nc3ccc(F)c(Cl)c3)c12`
met

# check: IC50 < 20 µg/mL for O=C1O[C@H]([C@@H](O)CO)C(O)=C1O [ASCORBIC ACID]
met
